molecular target: CXCR3A (Homo sapiens); construct: expressed in transfected cells; host or cells: U87 cells; assay: Figure S2a opioid peptide screen on chemokine receptors; assay type: cell-based; set-up: dose or concentration left out as unconfirmed; conditions: replicate 3, read-out: CXCR3A activity, ctrl+ = 100
Sequence (P49682 whole entry): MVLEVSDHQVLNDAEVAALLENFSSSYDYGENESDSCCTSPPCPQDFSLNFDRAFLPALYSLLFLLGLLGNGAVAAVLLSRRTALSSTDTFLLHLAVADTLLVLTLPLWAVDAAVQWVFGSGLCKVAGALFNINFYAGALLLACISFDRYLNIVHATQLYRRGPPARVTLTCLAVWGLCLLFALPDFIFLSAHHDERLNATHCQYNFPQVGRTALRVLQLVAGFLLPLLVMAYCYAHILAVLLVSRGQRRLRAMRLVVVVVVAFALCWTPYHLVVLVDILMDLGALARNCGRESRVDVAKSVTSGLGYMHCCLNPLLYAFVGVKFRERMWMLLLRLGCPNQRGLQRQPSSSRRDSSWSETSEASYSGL
metric: activation (%)
Kindly answer with a numeric value in %, unit omitted.

State the recorded activation for this entry: C[C@H](NC(=O)CNC(=O)[C@@H](NC(=O)[C@H](Cc1ccccc1)NC(=O)CNC(=O)CNC(=O)[C@@H](N)Cc1ccccc1)[C@@H](C)O)C(=O)N[C@@H](CCCNC(=N)N)C(=O)N[C@@H](CCCCN)C(=O)N[C@@H](CO)C(=O)N[C@@H](C)C(=O)N[C@@H](CCCNC(=N)N)C(=O)N[C@@H](CCCCN)C(N)=O
-5.38
